Test system: KM12
experimentalProtocol: NCI tumour cell line growth inhibition, 48 h
Active and inactive are the calls of the source. Rule as the data show it: active = GI50 up to about 1.1 µM and inactive = higher. Where a SMILES comes first, the peptide text is derived from it. The star is where a group is joined. Boc = CC(C)(C)OC(=O)*; OSu = O=C1CCC(=O)N1O*
Outcomes: 1 (yes) for active, 0 (no) for inactive

compound=N#CCCCCCOCCOCCOCCOCCOCCCCCC#N assignedclass="0 (no)"
compound="C=C1C(=O)OC2/C=C(/C)C3CC(O)C(C)(CC(OC(=O)/C(C)=C/C)C12)O3 (configuration not stated)" assignedclass="0 (no)"
compound=CNC1=Nc2ccc(Cl)cc2C(OP(=O)(N2CCOCC2)N2CCOCC2)=NC1 assignedclass="0 (no)"
compound=CCCCc1ccc(Nc2nc(SC)c3[nH]cnc3n2)cc1 assignedclass="0 (no)"
compound=CN(CCNC(=O)c1nn(-c2ccccc2)c2c1ccc1ccccc12)CCNC(=O)c1nn(-c2ccccc2)c2c1ccc1ccccc12 assignedclass="0 (no)"
compound=Cn1c(=O)c(C(=O)NC(=O)NCCCCCOC(=O)CCCCCCCCCCC(=O)OCCCCCNC(=O)NC(=O)c2cn(Cc3ccccc3)c(=O)n(C)c2=O)cn(Cc2ccccc2)c1=O assignedclass="0 (no)"
compound=COc1ccc2c(c1)c(=O)c1c(NCCN(C)C)ccc3c(=O)n(CCN(C)C)c(=O)n2c31 assignedclass="1 (yes)"
compound=O=C1c2ccccc2C(=O)c2nc(-c3ccccc3)c(-c3ccccc3)nc21 assignedclass="0 (no)"
compound="CC(=O)O[C@H]1C(=O)[C@@]2(C)C(C(OC(=O)c3ccccc3)[C@]3(O)CC(OC(=O)[C@H](OC(=O)CCC(=O)O)C(NC(=O)c4ccccc4)c4ccccc4)C(C)=C1C3(C)C)C1(OC(C)=O)COC1C[C@@H]2O (some centres not stated)" assignedclass="1 (yes)"
compound="CC(C)(C)c1cc(C2COC(=O)COCCOCC(=O)OCCOCCO2)cc(C(C)(C)C)c1O (configuration not stated)" assignedclass="0 (no)"
compound=[N-]=[N+]=Nc1ncnc2c1sc(=S)n2-c1ccccc1 assignedclass="0 (no)"
compound=O=C(OCc1ccccc1)N1CCN(C(=O)OCc2ccccc2)CCN(C(=O)OCc2ccccc2)CCN(C(=O)OCc2ccccc2)CCN(C(=O)OCc2ccccc2)CC1 assignedclass="0 (no)"
compound=O=C([C@H](O)[C@@H](O)c1ccc(Br)cc1)C12CC3CC(CC(C3)C1)C2 assignedclass="0 (no)"
compound=O=[N+]([O-])/C(Cl)=C(\NCCO)C(Cl)=C(Cl)Cl assignedclass="0 (no)"
compound=O=c1cc(-c2cccnc2)[nH]c2cc3c(cc12)OCO3 assignedclass="0 (no)"
compound="CC(NC(=O)C(NC(=O)OC(C)(C)C)C(C)C)C(=O)NCC(=O)ON1C(=O)CCC1=O (stereo not drawn) (Boc-Val-Ala-Gly-OSu; configuration not given here)" assignedclass="0 (no)"
compound=CCCCOc1ccc(NC(=N)Nc2ccc(Cl)cc2)cc1 assignedclass="0 (no)"

----------
System: SW-620
experimentalProtocol: NCI tumour cell line growth inhibition, 48 h
The source made the active and inactive calls. No stated cut-off is given here; in the data, active = GI50 up to about 1.1 µM and inactive = higher.
parameterMeasured: GI50

smilesrepr=O=C1c2ccccc2C(=O)c2nc(-c3ccccc3)c(-c3ccccc3)nc21 valuereported="2.7 µM (inactive)"
smilesrepr=Cc1ccc(S(=O)(=O)NC(=O)NCC(N)=O)cc1 valuereported="> 100 µM (inactive)"
smilesrepr=Cn1c(=O)nc2n(-c3cccc(Br)c3)c3ccccc3nc-2c1=O valuereported="2.61 µM (inactive)"
smilesrepr=CC1=NN(C(=O)c2ccc(Cl)cc2)C(=O)/C1=C/c1c(O)cc(O)c2ccccc12 valuereported="> 100 µM (inactive)"
smilesrepr=O=C1N[C@@H](O)[C@@H]2ON=C(c3ccccc3)[C@H]12 valuereported="> 100 µM (inactive)"

----------
Reported values of GI50 for individual entries
Tested on: A549
experimentalProtocol: NCI tumour cell line growth inhibition, 48 h
Activity calls are given as the source filed them. Cut-off read from the data, not from the text of the source: active = GI50 up to about 1.1 µM and inactive = higher.
parameterMeasured: GI50

compound="CNc1nc(OC)c2c(n1)n(C)c[n+]2C [HETEROMINE B]" valuereported="73.8 µM (inactive)"
compound="Cc1ccccc1NC(=O)C(=O)C(C1OC(=O)c2ccccc21)[N+](=O)[O-] (stereo not given)" valuereported="> 100 µM (inactive)"
compound=O=[N+]([O-])c1cnccc1-n1nnc2ccccc21 valuereported="25.1 µM (inactive)"
compound=C[N+](C)(N)CCC[N+](C)(C)N valuereported="> 100 µM (inactive)"
compound=OCCNc1ncnc2[nH]cnc12 valuereported="> 100 µM (inactive)"
compound=O=C(/C=C/c1ccc(OCCCCCCCCCCOc2ccc(/C=C/C(=O)c3ccc(Cl)cc3)cc2)cc1)c1ccc(Cl)cc1 valuereported="> 100 µM (inactive)"
compound="C=C1C(=O)OC2CC(C)C3CC(O)OC(OCC)C3(C)CC12 (stereo not given)" valuereported="41.6 µM (inactive)"
compound=CC(=O)/C=C/c1cccc(N=S)c1 valuereported="26.5 µM (inactive)"
compound=Cc1nc2ccccc2c(=O)n1/N=C(\N=N\c1cc(Cl)ccc1Cl)c1ccccc1 valuereported="71 µM (inactive)"
compound=O=C(c1ccccc1)c1ccc(C(c2c(O)c3ccccc3oc2=O)c2c(O)c3ccccc3oc2=O)cc1 valuereported="26.9 µM (inactive)"
compound="CC(C(=O)OCc1ccccc1)(c1ccco1)N1C(=O)OC(c2ccccc2)C1c1ccccc1 (stereo not given)" valuereported="> 100 µM (inactive)"
compound=C=CN1C(=O)[C@H](Oc2ccccc2)[C@@H]1c1ccccc1 valuereported="26.8 µM (inactive)"
compound="CC1CN=C(N(C(=O)Nc2ccc(F)c(Cl)c2)c2ccccc2)S1 (stereo not given)" valuereported="24.2 µM (inactive)"
compound="C1OC1CO[C@@H]1CO[C@H]2[C@@H]1OC[C@H]2OCC1CO1 (stereo not given in full)" valuereported="> 100 µM (inactive)"
compound=O=C([C@H](O)[C@@H](O)c1ccc(Br)cc1)C12CC3CC(CC(C3)C1)C2 valuereported="9.38 µM (inactive)"
compound=O=c1c2cc3c(cc2[nH]c2ncccc12)OCO3 valuereported="> 10 µM (inactive)"
compound=Clc1cccc(Cl)c1/C=N/C12CC3CC(CC(C3)C1)C2 valuereported="> 10 µM (inactive)"
compound=CC(=O)Nc1ccc(S(=O)(=O)/N=C2\C=CC(=O)c3ccccc32)cc1 valuereported="9.98 µM (inactive)"
compound=O=c1nc2ccc3sc4ccccc4c(=O)c3n2c(=O)[nH]1 valuereported="> 100 µM (inactive)"
compound=O=C(/C=C/c1ccc(Cl)c(Cl)c1)CCN1CCN(CCC(=O)/C=C/c2ccc(Cl)c(Cl)c2)CC1 valuereported="30.2 µM (inactive)"
compound="C=CC(=C)CCC(Br)C(C)(C)Br (stereo not given)" valuereported="> 100 µM (inactive)"
compound="Nc1ncnc2c1ncn2C1OC(CSCc2ccc(Cl)cc2)C(O)C1O (stereo not given)" valuereported="43.1 µM (inactive)"
compound=Clc1ccc(C2=NCON=C2c2ccc(Cl)cc2)cc1 valuereported="31.3 µM (inactive)"
compound="O=C(c1ccccc1)N1C2C3CC(OCc4ccccc4)(OCc4ccccc4)C(O3)C21 (stereo not given)" valuereported="> 100 µM (inactive)"
compound=CC(=N/NC(N)=S)/C(C)=N/NC(N)=S valuereported="> 100 µM (inactive)"
compound=COc1ccc(-c2nc3c(nc2-c2ccc(OC)cc2)C(N)=NS(=O)(=O)N3)cc1 valuereported="> 100 µM (inactive)"
compound="CC(=O)c1ccc(NC(=O)C(=O)C(C(=O)/C=C/c2ccccc2)C2OC(=O)c3ccccc32)cc1 (stereo not given)" valuereported="> 100 µM (inactive)"
compound=CC(C)=CCC\C(C)=C/C=C/C(C)=C\C=C\C(C)=C/C=C/C=C(C)\C=C\C=C(C)/C=C/C=C(/C)CCC=C(C)C valuereported="> 100 µM (inactive)"
compound="O=c1ccn(C2OC(CN(O)CCC3C(CO)OC(n4ccc(=O)[nH]c4=O)C3O)C(O)C2O)c(=O)[nH]1 (stereo not given)" valuereported="> 100 µM (inactive)"
compound=C=C(C)[C@@H]1CC[C@]2(C)CC[C@]3(C)[C@H](CC[C@@H]4[C@@]5(C)CC[C@H](OC(=O)c6ccccc6)C(C)(C)[C@@H]5CC[C@]43C)[C@@H]12 valuereported="> 100 µM (inactive)"
compound="CC(=O)OCC1=C(C)C[C@H]([C@@H](COC(C)=O)C2CCC3C4C[C@H]5O[C@]56CC=CC(=O)[C@]6(C)C4CC[C@@]32C)OC1=O (stereo not given in full)" valuereported="1.39 µM (inactive)"
compound=COc1ccc2c(c1)CCN=C2c1ccccc1CCCCl valuereported="24.2 µM (inactive)"
compound=CN(C)CC/C(=N\Nc1ccc(Cl)cc1Cl)c1ccccc1 valuereported="15 µM (inactive)"
compound=CN(C)c1ccc2nc3c(ccc4ccccc43)[o+]c2c1 valuereported="18.7 µM (inactive)"
compound=CCOC(=O)C[n+]1ccc2c([nH]c3cc(OC)ccc32)c1C valuereported="> 100 µM (inactive)"
compound=O=S(=O)(O)c1cc(S(=O)(=O)O)c2c(Nc3ccnc4ccccc34)ccc(S(=O)(=O)O)c2c1 valuereported="> 100 µM (inactive)"
compound=COC1=CC(=O)C2=C(C1=O)[C@H]1CC[C@]3(C)[C@@H](OC(C)=O)CC[C@H]3[C@@H]1CC2 valuereported="> 100 µM (inactive)"
compound=C[N+]1(C)CCC(C#N)(c2ccccc2)CC1 valuereported="> 100 µM (inactive)"
compound=COC(=O)/C=C1/OC(c2ccc(C)cc2)=C(Cl)C1=O valuereported="20.1 µM (inactive)"
compound=O=[N+]([O-])c1ccc(-n2nnc(C3=NCCCN3)c2-c2ccc(Cl)cc2)cc1 valuereported="> 100 µM (inactive)"
